Target: GST-Bcl-2 (Homo sapiens)
Sequence (P10415 whole entry): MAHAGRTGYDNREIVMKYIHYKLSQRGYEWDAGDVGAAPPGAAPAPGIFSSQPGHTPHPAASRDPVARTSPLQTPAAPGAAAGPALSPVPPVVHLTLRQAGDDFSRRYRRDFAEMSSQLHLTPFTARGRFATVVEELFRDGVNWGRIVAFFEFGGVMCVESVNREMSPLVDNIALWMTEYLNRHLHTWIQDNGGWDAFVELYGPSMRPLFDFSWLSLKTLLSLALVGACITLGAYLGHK
Test: TR-FRET binding assay, GST-Bcl-2 with F-Bak peptide probe
Details: TR-FRET Binding Affinity, GST-Bcl-2, F-Bak peptide probe
measurement_kind: pKi
Kindly note that pKi refers to -log10 of the concentration in mol/L and answer with the value alone.

Below, 4 molecules whose answers are already recorded.
CC1(C)CCC(CN2CCN(c3ccc(C(=O)NS(=O)(=O)c4ccc(NC[C@H]5CC[C@H](O)CC5)c([N+](=O)[O-])c4)c(Oc4ccc5[nH]ccc5c4)c3)CC2)=C(c2ccc(Cl)cc2)C1 [Example 310] :: 10.31
COCCOCCNc1ccc(S(=O)(=O)NC(=O)c2ccc(N3CCN(CC4=C(c5ccc(Cl)cc5)CC(C)(C)CC4)CC3)cc2Oc2ccc3[nH]ccc3c2)cc1[N+](=O)[O-] [Example 298] :: 9.50
CN(C)CCOc1cccc(-c2ccc(Cl)cc2)c1CN1CCN(c2ccc(C(=O)NS(=O)(=O)c3ccc(NCC4CCOCC4)c(S(=O)(=O)C(F)(F)F)c3)c(Oc3ccccc3)c2)CC1 [Example 124] :: 9.47
CN1CCC(Nc2ccc(S(=O)(=O)NC(=O)c3ccc(N4CCN(CC5=C(c6ccc(Cl)cc6)CC(C)(C)CC5)CC4)cc3Oc3cccc4c3CCN4)cc2[N+](=O)[O-])CC1 [Example 395] :: 9.10

Lab note: next molecule to report on.
Prompt line: Return reported pKi; argument: CC1(C)CCC(CN2CCN(c3ccc(C(=O)NS(=O)(=O)c4ccc(NCC5(CO)CCOCC5)c([N+](=O)[O-])c4)c(Oc4ccc5[nH]ccc5c4)c3)CC2)=C(c2ccc(Cl)cc2)C1 [Example 232]
Response line: 9.34
